Source listed as ChEMBL document CHEMBL1138445.

Molecular target: Cholesteryl ester transfer protein (Homo sapiens)
Test: Inhibition of human plasma derived CETP relative to control
Set-up: concentration or dose not given beside the values
Conditions: concentration not given here

MOLECULE	UNIT_DESCRIPTOR	inhibition
OC(CN1c2cccc(-c3cccc(OC(F)(F)F)c3)c2CCC1c1cccc(OC(F)(F)F)c1)C(F)(F)F (stereo in doubt; 53)	%	34
OC(CN1c2cccc(-c3cccc(OC(F)(F)F)c3)c2CCC1c1cccc(OC(F)(F)C(F)F)c1)C(F)(F)F (single isomer, unassigned; 20)	%	86
OC(CN1c2cccc(-c3cccc(OC(F)(F)F)c3)c2CCC1c1ccccc1)C(F)(F)F (single isomer, unassigned; diastereomer 2)	%	6
OC(CN1c2cccc(-c3cccc(C(F)(F)F)c3)c2CCC1c1cccc(OC(F)(F)C(F)F)c1)C(F)(F)F (single isomer, unassigned; diastereomer 2)	%	37
OC(CN1c2cccc(-c3cccc(OC(F)(F)F)c3)c2CCC1c1cccs1)C(F)(F)F (single isomer, unassigned; diastereomer 1)	%	28
CC(C)C(O)CN1c2cccc(-c3cccc(OC(F)(F)F)c3)c2CCC1c1cccc(OC(F)(F)F)c1 (single isomer, unassigned; diastereomer 2)	%	22
OC(CN1c2cccc(-c3cccc(OC(F)(F)F)c3)c2CCC1c1ccc(OC(F)(F)C(F)F)cc1)C(F)(F)F (single isomer, unassigned; diastereomer 1)	%	5
CCC1CCc2c(-c3cccc(OC(F)(F)F)c3)cccc2N1CC(O)C(F)(F)F (single isomer, unassigned; diastereomer 2)	%	12
OC(CN1c2cccc(-c3cccc(Cl)c3)c2CCC1c1cccc(OC(F)(F)C(F)F)c1)C(F)(F)F (single isomer, unassigned; diastereomer 1)	%	67
OC(CN1c2cccc(-c3cccc(C(F)(F)F)c3)c2CCC1c1cccc(OC(F)(F)C(F)F)c1)C(F)(F)F (single isomer, unassigned; diastereomer 1)	%	93
COCC(O)CN1c2cccc(-c3cccc(OC(F)(F)F)c3)c2CCC1c1cccc(OC(F)(F)F)c1 (single isomer, unassigned; diastereomer 1)	%	13
O[C@H](CN1c2cccc(-c3cccc(OC(F)(F)F)c3)c2CC[C@@H]1c1cccc(OC(F)(F)F)c1)C(F)(F)F [TETRAHYDROQUINOLINE B]	%	62
